- test_system: Human Fc (human)
- assay_name: ELISA, negative control
Assign labels as follows, please: Y for optical density below 0.2 OD; N for optical density equal to or exceeding 0.2 OD.

Please review the following examples before continuing.
373_C11 (antibody, V domains shown) VH: EVQLLESGGGLVQPGGSLRLSCAASGFTFSSYSMNWVRQAPGKGLEWVSGINYNSGYTGYADSVKGRFTISRDNSKNTLYLQMNSLRAEDTAVYYCARSANWHDTALDYWGQGTLVTVSS VL: DIQMTQSPSSLSASVGDRVTITCRASQSILTYVNWYQQKPGKAPKLVIYAVTSRASGVPSRFSGSGSGTDFTLTISSLQPEDFATYYCQQSYETPLTFGGGTKVEIK; Y
373_D04 (antibody, V domains shown) VH: EVQLLESGGGLVQPGGSLRLSCAASGFTFDSYSMNWVRQAPGKGLEWVSGINYNSGYKGYADSVKGRFTISRDNSKNTLYLQMNSLRAEDTAVYYCARSANWHDTALDYWGQGTLVTVSS VL: DIQMTQSPSSLSASVGDRVTITCRASQSILSYLNWYQQKPGKAPKLLIYAATSRHSGVPSRFSGSGSGTDFTLTISSLQPEDFATYYCQQSYDSPLTFGGGTKVEIK; Y
371_A06 (antibody, V domains shown) VH: EVQLLESGGGLVQPGGSLRLSCAASGFTFSSYGMNWVRQAPGKGLEWVAGINYNGGYTSYADSVKGRFTISRDNSKNTLYLQMNSLRAEDTAVYYCARSANWHDTALDYWGQGTLVTVSS VL: DIQMTQSPSSLSASVGDRVTITCRASQSILTYLNWYQQKPGKAPKLVIYAATSRHSGVPSRFSGSGSGTDFTLTISSLQPEDFATYYCQQSYDSPLTFGGGTKVEIK; N
367_C01 (antibody, V domains shown) VH: EVQLLESGGGLVQPGGSLRLSCAASGFTFDDYSMNWVRQAPGKGLEWVSGINYNGGYKSYADSVKGRFTISRDNSKNTLYLQMNSLRAEDTAVYYCARSANWHDTHLDYWGQGTLVTVSS VL: DIQMTQSPSSLSASVGDRVTITCRASQSILTYLNWYQQKPGKAPKLVIYATTSLHSGVPSRFSGSGSGTDFTLTISSLQPEDFATYYCQQSYDTPLTFGGGTKVEIK; N

Note: attention shifts to another entry.
Query :: # strict comparison: is reported optical density < 0.2 OD? input = 373_D10 (antibody, V domains shown) VH: EVQLLESGGGLVQPGGSLRLSCAASGFTFDSYSMNWVRQAPGKGLEWVSNINYNSGYKGYADSVKGRFTISRDNSKNTLYLQMNSLRAEDTAVYYCARSANWHDTALDYWGQGTLVTVSS VL: DIQMTQSPSSLSASVGDRVTITCRASQSILSYVNWYQQKPGKAPKLLIYAATSRASGVPSRFSGSGSGTDFTLTISSLQPEDFATYYCQQSYDLPLTFGGGTKVEIK
Result :: Y
